measurement_protocol: Pharmacokinetics, unchanged RAF265 in plasma
Format: in vivo, human
particulars: human, plasma, oral, 115 mg, Cycle 1 Day 1, DL 5, LD 115 mg; read-out: Tmax, Median
parameter_measured: Tmax (h)
Your answer is read as h, so omit the unit and give the number.

The reported Tmax of the compound Cn1c(Nc2ccc(C(F)(F)F)cc2)nc2cc(Oc3ccnc(-c4ncc(C(F)(F)F)[nH]4)c3)ccc21 was 2

---

measurement_protocol: Pharmacokinetics, unchanged RAF265 in plasma
Assay type: in vivo, human
particulars: human, plasma, oral, 67 mg, Cycle 1 Day 15, DL 7, MD 67 mg; read-out: Cmax, Mean (SD)
parameter_measured: Cmax (ng/mL)
Your answer is read as ng/mL, so omit the unit and give the number.

The reported Cmax of the molecule Cn1c(Nc2ccc(C(F)(F)F)cc2)nc2cc(Oc3ccnc(-c4ncc(C(F)(F)F)[nH]4)c3)ccc21 was 2650
